Values from paper PMC6167311

- TARGET: NDH-2 (type II NADH:quinone oxidoreductase) (Caldalkalibacillus thermarum, UniProt F5L3B8, I379E)
- Sequence (F5L3B8 entry or part of it I379E): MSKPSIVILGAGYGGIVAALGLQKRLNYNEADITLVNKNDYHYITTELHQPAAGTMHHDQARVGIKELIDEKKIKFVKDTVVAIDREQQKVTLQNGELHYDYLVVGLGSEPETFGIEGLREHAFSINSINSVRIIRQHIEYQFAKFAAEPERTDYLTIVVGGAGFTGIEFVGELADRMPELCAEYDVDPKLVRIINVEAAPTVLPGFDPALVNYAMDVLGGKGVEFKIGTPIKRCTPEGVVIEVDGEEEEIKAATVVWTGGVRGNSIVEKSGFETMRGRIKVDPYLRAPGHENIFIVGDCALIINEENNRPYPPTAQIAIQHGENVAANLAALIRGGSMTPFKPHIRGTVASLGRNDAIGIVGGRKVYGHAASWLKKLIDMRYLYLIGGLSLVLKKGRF
- TEST_DESCRIPTION: NADH:menadione oxidoreduction assay, […] menadione, […] NADH
ATTRIBUTE_MEASURED: pIC50
Lab note: report pIC50 as minus log10 of the concentration in molar units, number only.

Q) What does the data say about its pIC50? Entry: CCCCCCCc1cc(O)c2ccccc2[n+]1[O-] [compound 1, 2-heptyl-4-hydroxyquinoline-N-oxide]
A) 4.27

====

- TARGET: NDH-2 (type II NADH:quinone oxidoreductase) (Caldalkalibacillus thermarum)
ATTRIBUTE_MEASURED: IC50 (µM)
Give just the number in µM; leave the unit off.

Q) What does the data say about its IC50? Entry: CCCCCCCc1cc(O)c2ccccc2[n+]1[O-] [compound 1, 2-heptyl-4-hydroxyquinoline-N-oxide]
A) 7.3
